target: human c-Met (HGFR), full length, on the cell surface (human, UniProt P08581 25-1390); experiment: cell-based or functional assay
Sequence (P08581 25-1390 limits assumed): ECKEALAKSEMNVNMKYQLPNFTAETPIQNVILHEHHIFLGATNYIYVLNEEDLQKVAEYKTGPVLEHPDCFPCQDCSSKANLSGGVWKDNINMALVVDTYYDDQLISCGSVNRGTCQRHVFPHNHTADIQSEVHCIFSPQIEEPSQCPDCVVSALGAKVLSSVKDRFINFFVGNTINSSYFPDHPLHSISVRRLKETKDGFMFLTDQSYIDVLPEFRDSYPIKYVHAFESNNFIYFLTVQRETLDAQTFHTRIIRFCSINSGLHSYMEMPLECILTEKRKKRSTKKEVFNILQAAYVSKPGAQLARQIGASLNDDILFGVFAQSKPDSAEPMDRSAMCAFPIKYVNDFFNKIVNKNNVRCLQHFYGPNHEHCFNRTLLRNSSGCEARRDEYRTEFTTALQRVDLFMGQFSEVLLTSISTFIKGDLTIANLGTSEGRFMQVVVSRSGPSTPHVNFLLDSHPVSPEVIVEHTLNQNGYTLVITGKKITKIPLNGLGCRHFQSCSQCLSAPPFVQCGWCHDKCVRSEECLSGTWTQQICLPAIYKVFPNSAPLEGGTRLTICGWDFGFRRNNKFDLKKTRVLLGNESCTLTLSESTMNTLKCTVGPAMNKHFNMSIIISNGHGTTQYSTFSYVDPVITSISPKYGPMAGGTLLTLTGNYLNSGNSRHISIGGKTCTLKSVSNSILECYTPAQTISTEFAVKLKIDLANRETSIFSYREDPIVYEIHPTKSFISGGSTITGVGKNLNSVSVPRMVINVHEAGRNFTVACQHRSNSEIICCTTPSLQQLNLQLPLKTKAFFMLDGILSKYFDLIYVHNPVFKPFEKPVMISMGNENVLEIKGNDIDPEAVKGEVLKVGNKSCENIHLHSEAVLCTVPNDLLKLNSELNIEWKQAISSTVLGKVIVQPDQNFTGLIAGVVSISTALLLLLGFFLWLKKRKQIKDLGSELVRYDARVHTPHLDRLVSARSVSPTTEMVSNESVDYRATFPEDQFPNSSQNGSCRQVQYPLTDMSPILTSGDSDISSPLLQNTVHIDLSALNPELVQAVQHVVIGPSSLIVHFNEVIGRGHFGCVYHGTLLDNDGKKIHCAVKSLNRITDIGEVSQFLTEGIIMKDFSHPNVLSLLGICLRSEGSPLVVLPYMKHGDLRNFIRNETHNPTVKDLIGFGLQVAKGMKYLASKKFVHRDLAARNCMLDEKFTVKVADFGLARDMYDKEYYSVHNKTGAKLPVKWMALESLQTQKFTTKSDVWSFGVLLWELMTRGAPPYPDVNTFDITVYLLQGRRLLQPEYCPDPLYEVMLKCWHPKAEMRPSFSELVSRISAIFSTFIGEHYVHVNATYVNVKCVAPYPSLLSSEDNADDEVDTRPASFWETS
observable: IC50, in vitro cytotoxicity, PC-3, +HGF

Please review the following examples before continuing.
ADC3a (antibody, human IgG1, kappa, V domains shown, vc-seco-DUBA linker-drug on the engineered cysteine at HC position 41 (Kabat); DAR 1.9) VH: QVQLVQSGAEVKKPGASVKVSCKASGYTFTDYYLNWVRQACGQGLEWMGLIFPGNDKTEYSEKFKGRVTLTTDTSISTAYMELSSLTSDDTALYYCSGGDYGGFVYWGQGTLVTVSS VL: DIQLTQSPSSLSASVGDRVTITCGASENIYGALNWYQQKPGKAPKLLIYGATNLADGVPSRFSGSGSGTDFTLTISSLQPEDFATYYCQNVLSSPLTFGPGTKVDIKR yielded IC50, in vitro cytotoxicity, PC-3, +HGF of ~0.71 nM

ADC2 (antibody, human IgG1, kappa, V domains shown, vc-seco-DUBA linker-drug on the engineered cysteine at HC position 41 (Kabat); DAR 1.7) VH: QVQLQQSGAELVRPGASVKLSCKASGYVFPDYEMHWVKQTCVHGLEWIGAFDPETGDTTYNQNFKGKATLTADKASSTAYMDLRSLTSGDSAVYYCARDYKYLYYYAMDNWGQGTSVTVSS VL: QIVLTQSPAIMSASLGERVTMTCTASSSITSSYLHWYQQKPGSSPKLWIYSTTNLASGVPGRFSGSGSGTSFSLTISSMEAEDAATYYCHQYRRSPLTFGAGTKLELKR yielded IC50, in vitro cytotoxicity, PC-3, +HGF of ~10 nM

Next:
ADC1a (antibody, human IgG1, kappa, V domains shown, vc-seco-DUBA linker-drug on the engineered cysteine at HC position 41 (Kabat); DAR 1.7) VH: QVQLVQSGAEVKKPGASVKVSCKASGYIFTDYFMNWVRQACGQGLEWMGRVNPKNGDITYNQKFRGRVSLTKDTSINTAYMELSGLTSDDTAIYYCAYDGYYDGMDFWGQGTSVTVSS VL: ELVMTQSPSSLSASVGDRVTITCRANSSVSSNFLHWYQQKPGKAPKLLISSTSNLAFGVPSRFSGTGSGTDFSLTISSLQPEDFAIYYCHQYSGHPFTFGQGTKLEIKR yielded IC50, in vitro cytotoxicity, PC-3, +HGF of ~1.22 nM
